Experiment: Cytotoxicity against mouse J774A1 cells incubated for 72 hrs by MTT assay
Format: cell-based, J774.A1
Each entry below lists one item and its recorded log10 CC50 at 72 h value.
Values below are the log10 of the recorded CC50 at 72 h, with µM as the unit.

The measured log10 CC50 at 72 h associated with CC1(c2ccc(-c3ccncc3)cc2)CC(S(=O)(=O)c2ccc(F)cc2)=C(c2ccc(/C(N)=N\O)cc2)O1 (stereo unspecified) reads 0.83

In plain terms, CC1(c2ccc(-c3cccc(/C(N)=N\O)c3)cc2)CC(S(=O)(=O)c2ccc(F)cc2)=C(c2ccc(/C(N)=N\O)cc2)O1 (stereo unspecified) has a documented log10 CC50 at 72 h of 1.04

# compound CC1(Cc2ccccc2)CC(S(=O)(=O)c2ccc(F)cc2F)=C(c2ccc(/C(N)=N\O)cc2)O1 (stereo unspecified) ; its log10 CC50 at 72 h = 1.62

Notebook: CCC1(c2ccccc2OC)CC(S(=O)(=O)c2ccc(F)cc2)=C(c2ccc(/C(N)=N\O)cc2)O1 (stereo unspecified) , log10 CC50 at 72 h read as 0.99

* * *

Measured Ratio CC50/IC50, listed per entry.
Test: Selectivity index, ratio of CC50 for human HepG2 cells to IC50 for chloroquine, pyrimethamine and proguanil-resistant Plasmodium falciparum K1
Type: functional

Lookup result for CC1(c2ccc(-c3ccco3)cc2)CC(S(=O)(=O)c2ccc(F)cc2)=C(c2ccc(/C(N)=N\O)cc2)O1 (stereo not drawn) ; measured Ratio CC50/IC50: <0.7

Just so you know, measured Ratio CC50/IC50 for CC1(Cc2ccccc2)CC(S(=O)(=O)c2ccc(F)cc2F)=C(c2ccc(/C(N)=N\O)cc2)O1 (stereo not drawn) came out at 11

* * *

Overview of reported pIC50 across a group of molecules:
Tested on: Plasmodium falciparum
Assay: Antiplasmodial activity against chloroquine, pyrimethamine and proguanil-resistant Plasmodium falciparum K1 infected in human erythrocytes assessed as reduction in Parasitemia incubated for 72 hrs by SYBR Green I fluorescence-based method
Assay type: functional, organism-based
Conditions: K1, 72 h
pIC50: −log10 of the molar value.

Use the examples below as a reference point.
Molecule: CC1(Cc2ccccc2)CC(S(=O)(=O)c2cccc(F)c2)=C(c2ccc(/C(N)=N\O)cc2)O1 (centres undefined)
pIC50: 5.15
--
Molecule: CC1(Cc2ccccc2)CC(S(=O)(=O)c2ccccc2C(F)(F)F)=C(c2ccc(/C(N)=N\O)cc2)O1 (centres undefined)
pIC50: < 5.00
--
Molecule: CC1(c2ccc(-c3ccccc3C#N)cc2)CC(S(=O)(=O)c2ccc(F)cc2)=C(c2ccc(/C(N)=N\O)cc2)O1 (centres undefined)
pIC50: < 5.00

GET /value?item= CC1(c2ccc(Br)cc2)CC(S(=O)(=O)c2ccc(F)cc2)=C(c2ccc(/C(N)=N\O)cc2)O1 (centres undefined) &field=pIC50 returns < 5.00

* * *

Assay: Selectivity index, ratio of CC50 for human HepG2 cells to IC50 for chloroquine, pyrimethamine and proguanil-resistant Plasmodium falciparum K1
Format: functional
Outcome Measure: Ratio CC50/IC50

Query CC1(c2ccc(-c3cccc([N+](=O)[O-])c3)cc2)CC(S(=O)(=O)c2ccc(F)cc2)=C(c2ccc(/C(N)=N\O)cc2)O1 (stereo unspecified) yields Ratio CC50/IC50 of >8.6

Reported Ratio CC50/IC50 for Cc1ccc(-c2ccc(C3(C)CC(S(=O)(=O)c4ccc(F)cc4)=C(c4ccc(/C(N)=N\O)cc4)O3)cc2)cc1 (stereo unspecified) was <1.4

GET /value?item= CC1(c2ccc(Br)cc2)CC(S(=O)(=O)c2ccc(F)cc2)=C(c2ccc(/C(N)=N\O)cc2)O1 (stereo unspecified) &field=Ratio CC50/IC50 returns <1.9

Entry CC1(Cc2ccccc2)CC(S(=O)(=O)c2cccc(F)c2)=C(c2ccc(/C(N)=N\O)cc2)O1 (stereo unspecified) — recorded Ratio CC50/IC50 = 8.3

response.value for COc1ccc(C2(c3ccccc3)CC(S(=O)(=O)c3ccc(F)cc3)=C(c3ccc(/C(N)=N\O)cc3)O2)cc1 (stereo unspecified) (field: Ratio CC50/IC50) = 7

Consider CC1(c2ccccc2)CC(S(=O)(=O)c2ccc(F)cc2)=C(c2ccc(/C(N)=N\O)cc2)O1 (stereo unspecified) . Its measured Ratio CC50/IC50 is <6.8

* * *

Test: Selectivity index, ratio of CC50 for human HepG2 cells to IC50 for chloroquine, pyrimethamine and proguanil-resistant Plasmodium falciparum K1
Assay type: functional
Reported Ratio CC50/IC50 by item:
Just the number, please.

See these solved cases before continuing.
Compound: N/C(=N/O)c1ccc(C2=C(S(=O)(=O)c3ccc(F)cc3)CC(c3ccccc3)(c3ccccc3)O2)cc1
Endpoint Result: 4.9

Compound: C[C@H]1c2cccc(O)c2C(=O)C2=C(O)[C@]3(O)C(=O)C(C(N)=O)=C(O)[C@@H](N(C)C)[C@@H]3[C@@H](O)[C@@H]21.O
Endpoint Result: 4

Compound: CC1(c2ccc(-c3cccc(/C(N)=N\O)c3)cc2)CC(S(=O)(=O)c2ccc(F)cc2)=C(c2ccc(/C(N)=N\O)cc2)O1 (configuration not stated)
Endpoint Result: 4.4

Compound: CC1(c2ccc(-c3ccc(/C(N)=N\O)cc3)cc2)CC(S(=O)(=O)c2ccc(F)cc2)=C(c2ccc(/C(N)=N\O)cc2)O1 (configuration not stated)
Endpoint Result: 3.1

Compound: CC1(Cc2ccccc2)CC(S(=O)(=O)c2cccc(C(F)(F)F)c2)=C(c2ccc(/C(N)=N\O)cc2)O1 (configuration not stated)
Endpoint Result: 5.1

Next compound, Ratio CC50/IC50 to be filled in.
CC1(c2ccc(-c3ccncc3)cc2)CC(S(=O)(=O)c2ccc(F)cc2)=C(c2ccc(/C(N)=N\O)cc2)O1 (configuration not stated) yielded Ratio CC50/IC50 of 9.5

* * *

Assay: Cytotoxicity against human HepG2 cells incubated for 72 hrs by MTT assay
Type: cell-based
Please use yes for CC50 at 72 h under 60 µM and no for everything else, ties included.

The following compounds have reported results that may help.
Compound: CC1(c2ccc(-c3ccco3)cc2)CC(S(=O)(=O)c2ccc(F)cc2)=C(c2ccc(/C(N)=N\O)cc2)O1 (stereo not given)
Label Class: yes
--
Compound: CC1(Cc2ccccc2)CC(S(=O)(=O)c2ccccc2C(F)(F)F)=C(c2ccc(/C(N)=N\O)cc2)O1 (stereo not given)
Label Class: yes
--
Compound: COc1ccc(C2(c3ccccc3)CC(S(=O)(=O)c3ccc(F)cc3)=C(c3ccc(/C(N)=N\O)cc3)O2)cc1 (stereo not given)
Label Class: yes
--
Compound: CC1(c2ccc(-c3cccc(/C(N)=N\O)c3)cc2)CC(S(=O)(=O)c2ccc(F)cc2)=C(c2ccc(/C(N)=N\O)cc2)O1 (stereo not given)
Label Class: yes
--
Compound: CC1(Cc2ccccc2)CC(S(=O)(=O)c2c(F)cccc2F)=C(c2ccc(/C(N)=N\O)cc2)O1 (stereo not given)
Label Class: no

# ---- query compound ----
Problem: A record lists N/C(=N/O)c1ccc(C2=C(S(=O)(=O)c3ccc(F)cc3)CC(c3ccccc3)(c3ccccc3)O2)cc1 . Is its CC50 at 72 h below 60 µM?
Solution: yes

* * *

Experiment: Cytotoxicity against mouse J774A1 cells incubated for 72 hrs by MTT assay
Type: cell-based, J774.A1
Outcome Measure: log10 of CC50 at 72 h (log10 of the value in µM)
On a log10 scale: recorded CC50 at 72 h, unit µM.

Here is how some compounds turned out for log10 of CC50 at 72 h.
Compound: CC1(Cc2ccccc2)CC(S(=O)(=O)c2cccc(C(F)(F)F)c2)=C(c2ccc(/C(N)=N\O)cc2)O1 (configuration not stated)
log10 of CC50 at 72 h: 1.16
--
Compound: CC1(Cc2ccccc2)CC(S(=O)(=O)c2ccccc2F)=C(c2ccc(/C(N)=N\O)cc2)O1 (configuration not stated)
log10 of CC50 at 72 h: 1.46
--
Compound: COc1cccc2c1C(=O)c1c(O)c3c(c(O)c1C2=O)C[C@@](O)(C(=O)CO)C[C@@H]3O[C@H]1C[C@H](N)[C@H](O)[C@H](C)O1
log10 of CC50 at 72 h: -2.00
--
Compound: CC1(Cc2ccccc2)CC(S(=O)(=O)c2c(F)cccc2F)=C(c2ccc(/C(N)=N\O)cc2)O1 (configuration not stated)
log10 of CC50 at 72 h: 1.43
--
Compound: CC1(Cc2ccccc2)CC(S(=O)(=O)c2cccc(F)c2)=C(c2ccc(/C(N)=N\O)cc2)O1 (configuration not stated)
log10 of CC50 at 72 h: 1.45

Recorded result, COc1cc(-c2ccc(C3(C)CC(S(=O)(=O)c4ccc(F)cc4)=C(c4ccc(/C(N)=N\O)cc4)O3)cc2)cc(OC)c1OC (configuration not stated) , log10 of CC50 at 72 h: 0.72

// field: log10 of CC50 at 72 h; key: CC1(Cc2ccccc2)CC(S(=O)(=O)c2ccccc2C(F)(F)F)=C(c2ccc(/C(N)=N\O)cc2)O1 (configuration not stated) ; value = 1.37

# compound Cc1ccc(-c2ccc(C3(C)CC(S(=O)(=O)c4ccc(F)cc4)=C(c4ccc(/C(N)=N\O)cc4)O3)cc2)cc1 (configuration not stated) ; its log10 of CC50 at 72 h = 0.90

compound CC1(c2ccc(-c3ccc(/C(N)=N\O)cc3)cc2)CC(S(=O)(=O)c2ccc(F)cc2)=C(c2ccc(/C(N)=N\O)cc2)O1 (configuration not stated) , log10 of CC50 at 72 h observed: 0.60

Recorded log10 of CC50 at 72 h (compound CC1(c2ccc(-c3ccco3)cc2)CC(S(=O)(=O)c2ccc(F)cc2)=C(c2ccc(/C(N)=N\O)cc2)O1 (configuration not stated) ): 0.66

Just so you know, measured log10 of CC50 at 72 h for CC1(c2ccc(-c3cccc([N+](=O)[O-])c3)cc2)CC(S(=O)(=O)c2ccc(F)cc2)=C(c2ccc(/C(N)=N\O)cc2)O1 (configuration not stated) came out at 1.05

// log10 of CC50 at 72 h value for N/C(=N/O)c1ccc(C2=C(S(=O)(=O)c3ccc(F)cc3)CC(c3ccccc3)(c3ccccc3)O2)cc1 : 1.01
